- System: non-small cell lung cancer cell line H460
- PROCEDURE SUMMARY: In vitro human cancer cell line cytotoxicity (proliferation) assay in H460, CellTiter-Glo, 72 hours
- Type: cell-based
- PROTOCOL CONDITIONS: Homo sapiens, NCI-H460, 72 h, H460 cells, DMSO condition (no AKR1C3 inhibitor), read-out: CTG H460: Avg IC50 (nM) [Assay Condition: DMSO]
- Method: Biological Example 1. In Vitro Human Cancer Cell Line Cytotoxicity Assay IC50 values in nanomolar reported here were derived from in vitro proliferation assay data in non-small cell lung cancer cell line H460. Specifically, exponentially growing cells were seeded at density of 3×10^3 cells per well in 96-well plate and incubated at 37° C. in 5% CO2, 95% air and 100% relative humidity for 24 hours before adding compounds. Compounds were solubilized in 100% DMSO at 10 mM. […]
This section presents compounds with their documented IC50 values.

{"COMPOUND": "O=[N+]([O-])c1cc2oc(COP(=O)(N3CC3)N3CC3)cc2cc1Oc1ccnc(-c2ccccc2)c1", "IC50": "< 10 nM"}
{"COMPOUND": "CC(OP(=O)(N1C[C@@H]1C)N1C[C@@H]1C)c1ccc([N+](=O)[O-])c(Oc2ccc(-c3ccc(F)cn3)c(F)c2)c1 (stereo partly drawn)", "IC50": "< 10 nM"}

Task item: Name the recorded IC50 for O=C1c2ccc(Oc3c([N+](=O)[O-])ccc4c3CC[C@@H]4OP(=O)(N3CC3)N3CC3)cc2CN1C1CC1 .
Reply: < 10 nM

Task item: Name the recorded IC50 for O=[N+]([O-])c1ccc2c(c1Oc1cccc(-n3cc(F)cn3)c1)CCC2OP(=O)(N1CC1)N1CC1 (stereo not drawn) .
Reply: < 10 nM

Task item: Name the recorded IC50 for COc1ccc(-c2ccc(Oc3cc4c(cc3[N+](=O)[O-])CCC4OP(=O)(N3CC3)N3CC3)cc2)cc1 (stereo not drawn) .
Reply: 10 to 50 nM

Task item: Name the recorded IC50 for O=[N+]([O-])c1cc2oc(COP(=O)(N3CC3)N3CC3)cc2cc1Oc1ccc(-c2cccnc2)cc1 .
Reply: < 10 nM

Task item: Name the recorded IC50 for O=[N+]([O-])c1cc2c(cc1Oc1ccc(-c3ccc(F)cc3)cc1)C(OP(=O)(N1CC1)N1CC1)CC2 (stereo not drawn) .
Reply: < 10 nM

Task item: Name the recorded IC50 for O=[N+]([O-])c1ccc2c(c1Oc1cc(F)cc(-c3ccc(F)cn3)c1)CC[C@@H]2OP(=O)(N1CC1)N1CC1 .
Reply: < 10 nM

Task item: Name the recorded IC50 for O=[N+]([O-])c1ccc2c(c1Oc1cccc(-c3ccnn3CC(F)F)c1)CC[C@@H]2OP(=O)(N1CC1)N1CC1 .
Reply: < 10 nM

Task item: Name the recorded IC50 for [2H]C([2H])([2H])N(C(=O)c1cccc(Oc2cc3cc([C@H](C)OP(=O)(N4CC4)N4CC4)oc3cc2[N+](=O)[O-])c1)C([2H])([2H])[2H] (single isomer, unassigned) .
Reply: 10 to 50 nM

---

This section presents molecules with their documented IC50 values.
- System: non-small cell lung cancer cell line H460
- PROCEDURE SUMMARY: In vitro human cancer cell line cytotoxicity (proliferation) assay in H460, CellTiter-Glo, 72 hours
- Type: cell-based
- PROTOCOL CONDITIONS: Homo sapiens, NCI-H460, 72 h, H460 cells, DMSO condition (no AKR1C3 inhibitor), read-out: CTG H460: Avg IC50 (nM) [Assay Condition: DMSO]

Task item: Name the recorded IC50 for O=[N+]([O-])c1ccc2c(c1Oc1cccc(-n3cccn3)c1)CCC2OP(=O)(N1CC1)N1CC1 (stereo not drawn) .
Reply: < 10 nM

Task item: Name the recorded IC50 for O=C(c1cccc(Oc2c([N+](=O)[O-])ccc3c2CCC3OP(=O)(N2CC2)N2CC2)c1)N1CCCC1 (stereo not drawn) .
Reply: < 10 nM

Task item: Name the recorded IC50 for O=[N+]([O-])c1ccc2c(c1Oc1cc(O)cc(OCC3CC3)c1)CC[C@@H]2OP(=O)(N1CC1)N1CC1 .
Reply: < 10 nM

Task item: Name the recorded IC50 for O=[N+]([O-])c1cc2c(cc1Oc1ccc(-c3ccccn3)cc1)C(OP(=O)(N1CC1)N1CC1)CC2 (single isomer, unassigned) .
Reply: < 10 nM

Task item: Name the recorded IC50 for O=[N+]([O-])c1ccc2c(c1Oc1ccc(F)c(-n3cc(F)cn3)c1)CC[C@@H]2OP(=O)(N1CC1)N1CC1 .
Reply: < 10 nM

Task item: Name the recorded IC50 for O=[N+]([O-])c1ccc2c(c1Oc1ccccc1)OCCC2OP(=O)(N1CC1)N1CC1 (stereo not drawn) .
Reply: 10 to 50 nM

Task item: Name the recorded IC50 for Cc1nc2cc(Oc3c([N+](=O)[O-])ccc4c3CCC4OP(=O)(N3CC3)N3CC3)ccc2n1C (stereo not drawn) .
Reply: < 10 nM

The reported numbers originate from patent US20260167656A1.
